Cited source for all entries: PubChem BioAssay (NCATS)

Test system: CASKI
TEST_DESCRIPTION: Primary qHTS to identify gynecologic anti-cancer compounds using libraries of approved drugs and bioactive compounds (AID 1345084); also: nearly all actives have a fitted effect of over 55% in size
CONDITION_SUMMARY: Gynecologic cancer cell panel viability, ATPlite luminescence, 48 h; series mostly up to 57.5 µM
Results filed as inconclusive are left out. Active and inactive are the calls of the source. Calls follow the shape of the dose curve; as a rule, active = well fitted cell-killing curve with a large enough effect; inconclusive = small, poorly fitted or top-dose-only effect, or effect the other way; inactive = flat fitted curve, though single readings scatter.
Tick one outcome: active, inactive

Take a look at these entries with their results.
CC(CO)C1CCC2(C)CC3C(CO)CC(O)C3C(C)(O)C/C=C/12 (configuration not stated) :: inactive
CC1(C(=O)O)CCCC2(C)C3CCC4CC3(CCC12)CC4=O (configuration not stated) :: inactive
O=C(O)c1ccc(OC2OC(CO)C(O)C(O)C2O)cc1 (configuration not stated) :: inactive
CC(C)CC1NC(=O)C2CC3(O)c4ccccc4NC3N2C1=O (configuration not stated) :: inactive
C=C(CCC1=C(C)[C@H]2[C@H](CC3[C@@H]4CC=C5C[C@@H](O)C[C@@H](O)[C@]5(C)C4[C@H](O)C[C@@]32C)O1)CO[C@@H]1O[C@H](CO)[C@@H](O)[C@H](O)[C@H]1O (some centres not stated) :: active
CC1(C)CCC[C@@]2(C)C1[C@H](OC(=O)/C=C/C=C/C(=O)O)C=C1COC(=O)[C@@]12O (some centres not stated) :: inactive
CCC(Nc1ncnc2nc[nH]c12)c1nc2cccc(F)c2c(=O)n1-c1ccccc1 (configuration not stated) :: inactive
CCOCCOC(=O)/C=C/c1ccc(OC)cc1 :: inactive

Look up the recorded call for CC(C)C(C(=O)N(C)C(C)C(N)=O)N(C)C(=O)C1CCCN1C(=O)/C=C/C=C/C(O)C(C)O (configuration not stated) in this test.
inactive

Look up the recorded call for C[C@H](C(=O)NC1CCCC1)N(C(=O)Cn1nnc(-c2ccc3c(c2)OCO3)n1)C1CCCCC1 in this test.
inactive
